# assay-overview: compound effects on lung adenocarcinoma cell viability – A549, calcein-AM fluorescence, 48 h, basal, profiling panel (AID 1162); note: test concentration not given here
# study-conditions: higher = more signal
measured-attribute: z-score

I am curious: what z-score value has been reported for C=C(/C(=C/C[C@@H](OC(=O)c1ccncc1)c1cccc(OCCO)c1)c1cc(C(=O)OC)ccc1OC)C(C)C ?
1.49

Can you check O=C1O[C@@H](c2ccccc2)[C@@H](c2ccccc2)N2[C@@H](c3ccc(O)cc3)[C@]3(C(=O)Nc4ccc(C#CC5(O)CCCCCC5)cc43)[C@@H](C(=O)N3CCN(c4ncccn4)CC3)[C@H]12 next?
-0.415

Can you check COCCCNC(=O)[C@]1(Cc2ccccc2)N=C(c2ccc(OCCCO)cc2)O[C@@H]1c1ccccc1N=[N+]=[N-] next?
-1.8

Can you check COC(=O)C(CC#Cc1ccc2c(c1)[C@]1(C(=O)N2)[C@H](C(=O)N2CCc3cc(OC)c(OC)cc3C2)[C@H]2C(=O)O[C@H](c3ccccc3)[C@H](c3ccccc3)N2[C@@H]1c1ccc(O)cc1)C(=O)OC next?
-0.703

Can you check COC(=O)[C@@]1(Cc2ccc(OC)cc2)[C@H]2c3cc(C(=O)N4CCCC4)n(CCc4ccc(O)c(OC)c4)c3C[C@H]2CN1C(=O)c1ccccc1 next?
-1.47

Can you check COC(=O)[C@@]1(Cc2ccccc2)[C@H]2c3cc(C(=O)N(C)C)n(Cc4ccc(O)c(OC)c4)c3C[C@H]2CN1C(=O)c1ccccc1 next?
-0.927

Can you check COc1ccc([Si](C)(C)[C@@H]2[C@@H](CC(=O)N(CCO)Cc3ccccc3)O[C@]3(C(=O)N(Cc4ccc(N5CCOC5=O)cc4)c4ccccc43)[C@H]2C)cc1 next?
-0.65

Can you check O=C1O[C@@H](c2ccccc2)[C@@H](c2ccccc2)N2[C@@H](c3ccc(O)cc3)[C@]3(C(=O)Nc4ccc(C#CC5=CCCCC5)cc43)[C@@H](C(=O)Nc3nc4ccccc4s3)[C@H]12 next?
0.583

Can you check O=C1N(Cc2ccccc2)c2ccccc2[C@H]2OC(c3ccc(OCCCO)cc3)=N[C@@]12CCS(=O)(=O)c1ccccc1 next?
-0.737

Can you check CC(C)C(CO)N1C(=O)[C@@H]2[C@H]3C(=O)OCC=C[C@H]3OC23C=CCN(CCN2CCOCC2)C(=O)[C@@H]13 (some centres not stated) next?
-0.334

Can you check C=CCOC(=O)[C@@H]1[C@H]2C(=O)O[C@H](c3ccccc3)[C@H](c3ccccc3)N2[C@H](c2ccc(OCCOC(=O)[C@@H]3C[C@@H]4C(=O)N5CCC[C@H]5C(=O)N4[C@@H]3c3cccc(OCCO)c3)cc2)[C@@]12C(=O)Nc1ccc(I)cc12 next?
-0.283

Can you check C=CC[C@]1(C(=O)N2CCOCC2)N=C(c2ccc(OCCCO)cc2)O[C@H]1c1ccccc1CN=[N+]=[N-] next?
0.762

* * *

# assay-overview: blockers of DNA damage checkpoint Chk1 activation – imaging, HeLa, hydroxyurea, phospho-Chk1 antibody, percent positive cells, primary screen (AID 1186)
# study-conditions: hydroxyurea-induced phospho-Chk1 immunofluorescence imaging, higher = more signal
// map z-score to label using lower: < -0.4; middle: ≥ -0.4 and < 0.1; upper: ≥ 0.1

Kindly identify the class of COc1ccccc1CN1C(=O)c2ccccc2[C@@H](C(=O)NCC(C)C)[C@@H]1c1ccc(CO)cc1 .
middle

Can you check O=C1N(CCS(=O)(=O)c2ccccc2)Cc2ccccc2C[C@@]12COC(c1ccc(OCCCO)cc1)=N2 next?
lower

Can you check COCCOC(=O)N1C(=O)[C@@]2(c3cc(C#CCNC(N)=O)ccc31)[C@H](C(N)=O)[C@H]1C(=O)O[C@H](c3ccccc3)[C@H](c3ccccc3)N1[C@@H]2c1ccc(OCCO)cc1 next?
upper

Can you check CC(C)c1ccc(NN2C(C(O)c3cccs3)C=CC3C(=O)N(c4ccccc4)C(=O)C32)cc1 (stereo not given) next?
upper

Can you check CCCC[C@H]1OB(O)C[C@H]2C1=C(COc1ccccc1)Cn1c(=O)n(-c3ccccc3)c(=O)n12 next?
middle

Can you check COc1ccc([Si](C)(C)[C@@H]2[C@@H](CC(=O)N(CCO)Cc3ccccc3)O[C@]3(C(=O)N(C)c4c(Br)cc(C)cc43)[C@H]2C)cc1 next?
lower

Can you check COc1cc(C(O)C2C=CC3C(=O)N(C)C(=O)C3N2NC(=O)OC(C)(C)C)cc(OC)c1OC (stereo not given) next?
upper

Can you check CC(C)[Si](C#C[Si](C(C)C)(C(C)C)C(C)C)(O[C@H](C)c1cn(Cc2cccc(Cl)c2)nn1)C(C)C next?
middle

Can you check COC(=O)c1ccc(OC)c(/C=C\CC(CCc2ccccc2)OC(C)=O)c1 (stereo not given) next?
upper

Can you check CN(C)C(=O)[C@@]1(CCS(=O)(=O)c2ccccc2)N=C(c2ccc(OCCCO)cc2)O[C@H]1c1ccccc1CN=[N+]=[N-] next?
middle

Can you check [N-]=[N+]=NCc1ccccc1[C@H]1OC(c2ccc(OCCCO)cc2)=N[C@@]1(Cc1ccccc1)C(N)=O next?
lower

Can you check CCCc1cc2c(n1Cc1ccc(OC)cc1)C(C)C1CN(C(=O)c3ccccc3)C(C)(C(=O)OC)C21 (stereo not given) next?
upper

Can you check C=C(C(=O)CC[C@H](OC(=O)c1cccnc1)c1ccc(OCCO)cc1)C(C)C next?
upper

Can you check C=CCNC(=O)[C@H]1[C@@H]2C(=O)O[C@@H](c3ccccc3)[C@@H](c3ccccc3)N2[C@@H](c2ccc(OCCO)cc2)[C@]12C(=O)N(C(=O)OCCOC)c1ccc(C#CC3=CCCCC3)cc12 next?
middle

Can you check CCCC=C(CCC)[C@@H](NS(=O)(=O)CC)c1ccccc1 next?
upper

Can you check CC(=O)NCCCC[C@@H]1NC(=O)[C@@H]2C[C@H](C(=O)NCCCC[N+](C)(C)C)[C@H](c3cccc(OCCO)c3)N2C1=O next?
middle

Can you check COc1ccc([Si](C)(C)[C@@H]2[C@@H](CC(=O)N3Cc4ccccc4C[C@H]3CO)O[C@]3(C(=O)N(Cc4cccc(N5CCCCC5=O)c4)c4ccccc43)[C@H]2C)cc1 next?
lower

Can you check O=C(C=C(CC(O)c1cccc(Cl)c1)OCCF)OCCF (stereo not given) next?
lower

Can you check O=C(N1CCOCC1)[C@@]1(CCS(=O)(=O)c2ccccc2)COC(c2ccc(OCCCO)cc2)=N1 next?
upper

Can you check CCC[C@@H]1C[C@@]1(CCC)[C@@H](NC(=O)c1ccco1)c1ccc(Cl)cc1 next?
upper

Can you check CC(C)C(CO)N1C(=O)[C@@H]2[C@H]3C(=O)OCC=C[C@H]3OC23C=CCN(Cn2nnc4ccccc42)C(=O)[C@@H]13 (stereo not given in full) next?
upper

Can you check COCCOC(=O)N1C(=O)[C@@]2(c3cc(C#CC4(O)CCCCCC4)ccc31)[C@H](C(=O)NC[C@H](O)c1ccccc1)[C@H]1C(=O)O[C@H](c3ccccc3)[C@H](c3ccccc3)N1[C@@H]2c1ccc(OCCO)cc1 next?
middle

Can you check COc1ccc(C#Cc2ccc3c(c2)[C@]2(C(=O)N3)[C@H](C(N)=O)[C@H]3C(=O)O[C@H](c4ccccc4)[C@H](c4ccccc4)N3[C@@H]2c2ccc(O)cc2)cc1 next?
lower

Can you check COC(=O)[C@@]1(Cc2ccccc2N=[N+]=[N-])N=C(c2ccc(OCCCO)cc2)O[C@H]1c1ccccc1 next?
middle

Can you check CN(C)CCCCCCNC(=O)[C@@H]1C[C@@H]2C(=O)NCC(=O)N2[C@@H]1c1ccc(O)cc1 next?
lower

Can you check CC[C@@H]1[C@@H]2C3C(=O)N(CC)C(=O)C3CC(=O)[C@@H]2[C@H](c2ccc(C)cc2)N1S(=O)(=O)c1ccc(C)cc1 (stereo not given in full) next?
lower

Can you check CC(C)C[C@@H]1NC(=O)[C@@H]2C[C@H](C(=O)NCCCC[N+](C)(C)C)[C@H](c3cccc(OCCO)c3)N2C1=O next?
middle

Can you check COc1cc(C(O)C2C=CC3C(=O)NC(=O)C3N2Nc2ccc(Cl)cc2Cl)cc(OC)c1OC (stereo not given) next?
upper

Can you check CN(C)C(=O)[C@@]1(CCC(=O)OC(C)(C)C)COC(c2ccc(OCCCO)cc2)=N1 next?
middle

Can you check CN1C(=O)C2C=CC(C(O)C3CCCCC3)N(N(c3ccccc3)c3ccccc3)C2C1=O (stereo not given) next?
upper
